Reference source: paper PMC6540222

# SUBJECT_OF_TEST: KDM5 enzymes
# MEASUREMENT_DESCRIPTION: Enzymatic inhibition assay (Epigenase JARID Demethylase Activity/Inhibition Assay Kit, fluorometric)
# Assay type: biochemical
# STUDY_CONDITIONS: in vitro, toward KDM5 enzymes; This work
MEASURE: IC50 (nM)
Give the value in nM but do not write nM after it.

Problem: Read off the recorded IC50 for CCOC(=O)c1ccccc1C(=O)c1cccc(NS(=O)(=O)c2ccc(OC)cc2)c1
Solution: 1000

* * *

Property: pKd; scope: individual compounds
# SUBJECT_OF_TEST: KDM5D (Homo sapiens, UniProt Q9BY66)
# Sequence (Q9BY66 whole entry): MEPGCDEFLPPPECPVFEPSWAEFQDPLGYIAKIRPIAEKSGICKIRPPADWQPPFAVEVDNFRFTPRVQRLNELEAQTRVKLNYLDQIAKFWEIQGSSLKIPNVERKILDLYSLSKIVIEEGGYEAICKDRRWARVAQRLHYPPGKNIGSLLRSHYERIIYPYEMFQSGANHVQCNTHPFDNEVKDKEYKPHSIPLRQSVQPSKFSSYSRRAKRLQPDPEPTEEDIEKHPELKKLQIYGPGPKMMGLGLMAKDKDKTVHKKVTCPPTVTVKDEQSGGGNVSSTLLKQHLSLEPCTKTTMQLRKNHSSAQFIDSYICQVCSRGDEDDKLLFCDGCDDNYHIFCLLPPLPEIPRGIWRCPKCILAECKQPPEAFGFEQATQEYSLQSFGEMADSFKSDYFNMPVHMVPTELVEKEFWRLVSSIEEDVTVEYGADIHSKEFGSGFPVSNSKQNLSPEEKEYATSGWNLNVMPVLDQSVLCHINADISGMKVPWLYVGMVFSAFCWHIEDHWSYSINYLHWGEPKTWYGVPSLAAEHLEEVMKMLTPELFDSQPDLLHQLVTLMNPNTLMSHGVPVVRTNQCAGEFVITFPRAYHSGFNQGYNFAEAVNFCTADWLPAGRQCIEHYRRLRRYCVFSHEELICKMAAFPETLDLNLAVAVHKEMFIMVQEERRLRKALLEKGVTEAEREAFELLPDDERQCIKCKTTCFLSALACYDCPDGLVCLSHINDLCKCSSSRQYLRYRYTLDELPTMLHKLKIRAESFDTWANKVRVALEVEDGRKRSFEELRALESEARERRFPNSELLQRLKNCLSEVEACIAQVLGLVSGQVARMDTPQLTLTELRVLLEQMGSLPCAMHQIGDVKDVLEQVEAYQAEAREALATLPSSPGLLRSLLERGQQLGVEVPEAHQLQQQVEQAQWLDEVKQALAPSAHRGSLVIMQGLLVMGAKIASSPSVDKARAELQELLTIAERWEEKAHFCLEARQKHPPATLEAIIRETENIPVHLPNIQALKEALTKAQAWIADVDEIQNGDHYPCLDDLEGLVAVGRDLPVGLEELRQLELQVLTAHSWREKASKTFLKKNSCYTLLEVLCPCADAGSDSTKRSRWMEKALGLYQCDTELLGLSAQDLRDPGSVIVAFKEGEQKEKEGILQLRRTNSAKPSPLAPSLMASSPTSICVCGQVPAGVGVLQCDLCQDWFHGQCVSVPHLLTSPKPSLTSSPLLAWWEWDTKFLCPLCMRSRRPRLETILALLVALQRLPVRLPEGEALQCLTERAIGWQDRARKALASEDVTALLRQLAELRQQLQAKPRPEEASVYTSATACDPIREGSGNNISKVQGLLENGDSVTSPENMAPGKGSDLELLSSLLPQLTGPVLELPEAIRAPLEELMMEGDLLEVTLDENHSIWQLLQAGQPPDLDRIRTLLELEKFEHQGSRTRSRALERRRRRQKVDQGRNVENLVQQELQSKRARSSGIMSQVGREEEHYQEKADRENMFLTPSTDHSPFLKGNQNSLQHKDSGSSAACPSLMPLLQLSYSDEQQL
# MEASUREMENT_DESCRIPTION: Surface Plasmon Resonance (SPR), immobilized KDM5D
# Assay type: binding
# STUDY_CONDITIONS: KDM5D immobilized on COOH5 sensorchip, buffer HSP-1%D, analyte 6.25-100 μM
Recall that pKd is obtained by taking minus log10 of the concentration measured in molar.

COMPOUND: COc1ccc(S(=O)(=O)Nc2cccc(C(=O)n3cccc3)c2)cc1 [RS3152]
pKd: 4.21

Moving on to another compound below.
Problem: For KDM5D (Homo sapiens, UniProt Q9BY66), give the measured pKd of the entry CCOC(=O)c1cccn1C(=O)c1cccc(NS(=O)(=O)c2ccc(OC)cc2)c1 [RS3195]
Solution: 4.42
